pIC50 values for the molecules below.
molecular target: PKBα (Homo sapiens, UniProt P31749); assay: PKB kinase assay (P33-labeled ATP, peptide substrate, filter plate); conditions: PKBα enzyme (full length or kinase domain with pleckstrin domain deleted)
Sequence (P31749 118-480 limits assumed): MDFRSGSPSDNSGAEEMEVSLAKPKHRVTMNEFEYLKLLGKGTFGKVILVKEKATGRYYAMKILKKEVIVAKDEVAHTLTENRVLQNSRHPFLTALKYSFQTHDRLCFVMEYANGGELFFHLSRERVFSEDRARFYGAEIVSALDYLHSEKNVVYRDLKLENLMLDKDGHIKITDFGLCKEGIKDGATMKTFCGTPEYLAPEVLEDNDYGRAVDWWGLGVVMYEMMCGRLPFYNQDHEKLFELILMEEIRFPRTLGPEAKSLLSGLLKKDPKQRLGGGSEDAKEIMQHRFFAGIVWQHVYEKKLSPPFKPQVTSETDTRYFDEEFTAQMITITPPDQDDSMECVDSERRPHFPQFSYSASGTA
pIC50: −log10 of the molar value.
measurement.type: pIC50

INSERT INTO measurements (molecule, reading) VALUES
  ('N[C@H](CNc1ncc(-c2ccc3c(c2)CC(=O)N3)s1)Cc1ccc2ccccc2c1', '6.00 to 7.30'),
  ('COCc1nc(NC[C@@H](N)Cc2ccc(C(F)(F)F)cc2)sc1-c1ccc2[nH]nc(C)c2c1', '6.00 to 7.30'),
  ('NC(CNc1ncc(-c2ccc3cnccc3c2)s1)Cc1ccc(OC(F)(F)F)cc1 (centres unmarked)', '> 7.30'),
  ('N[C@H](CNc1nc(C2CCCO2)c(-c2ccc3cnccc3c2)s1)Cc1ccc(Cl)cc1 (some centres unmarked)', '6.00 to 7.30'),
  ('N[C@H](CNc1ncc(-c2ccc3[nH]c(=O)sc3c2)s1)Cc1ccc(C(F)(F)F)cc1', '> 7.30'),
  ('N[C@H](CNc1nc(-c2cccc(F)c2F)c(-c2ccc3cnccc3c2)s1)Cc1ccc(C(F)(F)F)cc1', '6.00 to 7.30'),
  ('N[C@H](CNc1ncc(-c2ccc3[nH]c(=O)oc3c2)s1)Cc1ccc(Cl)c(Cl)c1', '> 7.30'),
  ('N[C@H](CNc1nc(C(F)(F)F)c(-c2ccc3cnccc3c2)s1)Cc1ccc(Cl)cc1', '6.00 to 7.30');
